tested on: 857933-349-R-J2-PDC complex spheroids, viability; test: Anticancer human tumor 857933-349-R-J2-PDC patient-derived colon adenocarcinoma cell line growth inhibition [GQUAD]; conditions: second compound 10 µM; first compound 0.0316 µM; active compounds read low;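 further: spheroids exposed to compounds for one week before readout; percent viability relative to vehicle DMSO wells taken as 100%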
Catalogue of viability, T/C readings, one per entry.
Just the number please, in %, no unit attached.

# COMPOUND, ASSAYED SYSTEM, viability, T/C, %
data = [
    ("C=CC(=O)N1CCN(c2nc(=O)n(-c3c(C)ccnc3C(C)C)c3nc(-c4c(O)cccc4F)c(F)cc23)C(C)C1 (stereo not given) + Cc1[nH]c2ccc(F)cc2c1-c1nc2c3cccnc3c3ncccc3c2[nH]1", "857933-349-R-J2-PDC complex spheroids, viability", 102),
    ("CC1COCCN1c1cc(C2(S(C)(=N)=O)CC2)nc(-c2ccnc3[nH]ccc23)n1 (stereo not given) + Cc1cnc(CNC(=O)c2c(=O)c3ccc(N4CCCN(C)CC4)nc3n3c2sc2ccccc23)cn1", "857933-349-R-J2-PDC complex spheroids, viability", 1.11),
    ("Cc1cccc(N(C)C(=O)C2C(O)CCN2c2nc(C)cc(C(F)(F)F)c2C#N)c1 (stereo not given) + Cc1cnc(CNC(=O)c2c(=O)c3ccc(N4CCCN(C)CC4)nc3n3c2sc2ccccc23)cn1", "857933-349-R-J2-PDC complex spheroids, viability", 2.6),
    ("O=C(c1cc(Cc2n[nH]c(=O)c3ccccc23)ccc1F)N1CCN(C(=O)C2CC2)CC1 + Cc1cnc(CNC(=O)c2c(=O)c3ccc(N4CCCN(C)CC4)nc3n3c2sc2ccccc23)cn1", "857933-349-R-J2-PDC complex spheroids, viability", 1.22),
]

Now turn to the next compound.
Record request: viability, T/C value, item CC(C)n1c(=O)n(C)c2cnc3cc(F)c(-c4ccc(OCCCN5CCCCC5)nc4)cc3c21 + CN(C)c1ccc(Nc2c3ccc(NC(=O)CCN4CCCC4)cc3nc3cc(NC(=O)CCN4CCCC4)ccc23)cc1
72.8
